target: MTAP (Homo sapiens); test: Isothermal titration calorimetry of ligand binding to human MTAP; settings: Kd, adenine, 1st site, three sequential binding sites model; derived from ITC data fitting
Sequence (Q13126 whole entry): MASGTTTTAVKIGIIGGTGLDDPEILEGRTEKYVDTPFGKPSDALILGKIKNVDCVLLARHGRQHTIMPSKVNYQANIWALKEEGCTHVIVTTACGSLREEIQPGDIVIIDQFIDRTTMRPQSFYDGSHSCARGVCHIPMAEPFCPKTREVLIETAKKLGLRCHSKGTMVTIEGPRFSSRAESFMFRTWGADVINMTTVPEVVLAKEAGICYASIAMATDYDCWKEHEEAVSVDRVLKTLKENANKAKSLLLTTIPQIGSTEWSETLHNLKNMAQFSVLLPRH
ENDPOINT_NAME: Kd (µM)
Answer in µM, number only, no unit symbol.

Query: Report Kd for Nc1ncnc2[nH]cnc12 [Adenine, reference compound] tested on MTAP (Homo sapiens).
Response: 3
